# MEASUREMENT TARGET: T1, human plasma Kallikrein (human, UniProt P03952 20-638, limits assumed)
# T1 construct: also called hPK; human PK
# T1 sequence (P03952 20-638 limits assumed): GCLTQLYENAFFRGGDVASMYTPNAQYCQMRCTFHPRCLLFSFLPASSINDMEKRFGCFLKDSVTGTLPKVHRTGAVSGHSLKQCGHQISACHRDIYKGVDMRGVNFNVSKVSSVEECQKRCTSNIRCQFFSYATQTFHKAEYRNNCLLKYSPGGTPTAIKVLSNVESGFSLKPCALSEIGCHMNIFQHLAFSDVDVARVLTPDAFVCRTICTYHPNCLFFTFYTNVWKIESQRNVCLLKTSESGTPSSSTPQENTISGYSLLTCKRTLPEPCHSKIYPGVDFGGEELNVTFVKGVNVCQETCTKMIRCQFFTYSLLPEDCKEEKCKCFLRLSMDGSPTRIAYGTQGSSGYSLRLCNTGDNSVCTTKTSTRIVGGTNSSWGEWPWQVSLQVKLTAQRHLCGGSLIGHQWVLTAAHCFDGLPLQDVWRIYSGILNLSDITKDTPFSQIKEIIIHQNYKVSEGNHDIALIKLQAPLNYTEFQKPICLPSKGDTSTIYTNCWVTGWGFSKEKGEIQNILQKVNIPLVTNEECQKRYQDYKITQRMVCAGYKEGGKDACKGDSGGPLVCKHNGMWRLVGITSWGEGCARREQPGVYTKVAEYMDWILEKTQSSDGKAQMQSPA
# ASSAY: enzyme inhibition assay
Numbered stars: 1 amine (or outer) side, 2 acyl side, 3 side chain; on linkers, the order of the positions; unused ones are H or OH. Bridge positions count the residues as written; N and C are the ends. Square brackets hold non-standard residues; d marks the D form. Dip = N[C@H](C(=O)O)C(c1ccccc1)c1ccccc1; TBMB = c1c(C[*:1])cc(C[*:3])cc1C[*:2]; 4Pal = N[C@@H](Cc1ccncc1)C(=O)O
REPORTED PROPERTY: Ki (nM)
Number in nM, nothing else.

{"BINDER": "Ac-CS[4Pal]PARCLHQDLC-NH2 (linker 1-7-13 via TBMB; SMILES CC(=O)N[C@H]1CSCc2cc3cc(c2)CSC[C@H](NC(=O)[C@H](CCCNC(=N)N)NC(=O)[C@H](C)NC(=O)[C@@H]2CCCN2C(=O)[C@H](Cc2ccncc2)NC(=O)[C@H](CO)NC1=O)C(=O)N[C@@H](CC(C)C)C(=O)N[C@@H](Cc1c[nH]cn1)C(=O)N[C@@H](CCC(N)=O)C(=O)N[C@@H](CC(=O)O)C(=O)N[C@@H](CC(C)C)C(=O)N[C@H](C(N)=O)CSC3) [Ac-(06-34-18) 4Pal2]", "NUMERIC RESULT": 72}

Query string: Can you share its Ki? I mean this binder: Ac-CS[Dip]PARCLHQDLC-NH2 (linker 1-7-13 via TBMB; SMILES CC(=O)N[C@H]1CSCc2cc3cc(c2)CSC[C@H](NC(=O)[C@H](CCCNC(=N)N)NC(=O)[C@H](C)NC(=O)[C@@H]2CCCN2C(=O)[C@H](C(c2ccccc2)c2ccccc2)NC(=O)[C@H](CO)NC1=O)C(=O)N[C@@H](CC(C)C)C(=O)N[C@@H](Cc1c[nH]cn1)C(=O)N[C@@H](CCC(N)=O)C(=O)N[C@@H](CC(=O)O)C(=O)N[C@@H](CC(C)C)C(=O)N[C@H](C(N)=O)CSC3) [Ac-(06-34-18) 3,3-DPA2]
Result string: 1.5
